Measured EC50 by item
Biological target: Trace amine-associated receptor 1 (Rattus norvegicus)
Sequence (Q923Y9 whole entry): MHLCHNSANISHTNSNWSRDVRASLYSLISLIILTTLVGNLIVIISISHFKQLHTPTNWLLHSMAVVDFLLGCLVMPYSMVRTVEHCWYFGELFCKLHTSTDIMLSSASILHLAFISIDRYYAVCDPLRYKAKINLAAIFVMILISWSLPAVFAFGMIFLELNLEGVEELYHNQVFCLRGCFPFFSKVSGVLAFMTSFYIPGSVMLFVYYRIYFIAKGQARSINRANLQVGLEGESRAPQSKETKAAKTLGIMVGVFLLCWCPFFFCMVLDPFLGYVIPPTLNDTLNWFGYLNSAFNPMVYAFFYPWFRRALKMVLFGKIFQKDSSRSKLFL
Experiment: Activity at rat TAAR1 by measuring cAMP accumulation in HEK293 cells
Use nM as the unit, but write only the number.

q: Please look at NCCc1ccc(OCCc2ccccc2)cc1 and tell me its recorded EC50 on Trace amine-associated receptor 1 (Rattus norvegicus).
a: 203

q: Check Trace amine-associated receptor 1 (Rattus norvegicus) data and give EC50 for CNCCc1ccc(Oc2ccc(O)cc2)c(I)c1 .
a: 18

q: // output EC50; input NCCc1ccc(OCc2ccc([N+](=O)[O-])cc2)cc1 ; system Trace amine-associated receptor 1 (Rattus norvegicus)
a: 64

q: // fetch EC50; item: NCCc1ccc(OCCCCc2ccccc2)cc1 ; system: Trace amine-associated receptor 1 (Rattus norvegicus)
a: 43

q: Write down measured EC50 (Trace amine-associated receptor 1 (Rattus norvegicus)) for this compound. NCCc1ccc(Oc2ccc(O)c(I)c2)cc1
a: 800

q: For Trace amine-associated receptor 1 (Rattus norvegicus), give the measured EC50 of the entry Cc1cc(C)cc(COc2ccc(CCN)cc2)c1
a: 137

q: With Trace amine-associated receptor 1 (Rattus norvegicus) as the test system, provide measured EC50 for this compound: NCCc1ccc(OCC(=O)c2ccccc2)cc1
a: 309

q: Identify measured EC50 obtained with Trace amine-associated receptor 1 (Rattus norvegicus) for NCCc1ccc(OCCCc2ccccc2)cc1 .
a: 89

q: Write down the reported EC50 (system: Trace amine-associated receptor 1 (Rattus norvegicus)) of CNCCc1ccc(Oc2ccc(OC)cc2)c(I)c1
a: 107

q: State measured EC50 of the compound CNCCc1ccc(Oc2ccc(F)cc2)c(I)c1 with Trace amine-associated receptor 1 (Rattus norvegicus).
a: 2.7

q: Name the recorded EC50 of COc1cccc(COc2ccc(CCN)cc2)c1 , assay system Trace amine-associated receptor 1 (Rattus norvegicus).
a: 141

q: Lab note: Trace amine-associated receptor 1 (Rattus norvegicus) assay, enter EC50 for CNCCc1ccc(OCc2ccccc2)cc1 here
a: 119

q: Supply EC50 measured with Trace amine-associated receptor 1 (Rattus norvegicus) for COc1cc(COc2ccc(CCN)cc2)cc(OC)c1 .
a: 333

q: Write EC50 of Cc1cc(CCN)ccc1Oc1ccc(O)cc1 ; system used: Trace amine-associated receptor 1 (Rattus norvegicus)
a: 33

q: Using Trace amine-associated receptor 1 (Rattus norvegicus) as the test system, report measured EC50 of NCCc1ccc(Oc2ccccc2)cc1 .
a: 38

q: Under Trace amine-associated receptor 1 (Rattus norvegicus), report EC50 for NCCc1ccc(OCc2ccccc2)cc1
a: 209

q: Give EC50; test system Trace amine-associated receptor 1 (Rattus norvegicus); compound NCCc1ccc(OCc2ccc(F)cc2)cc1
a: 72

q: Report the value of EC50 obtained on Trace amine-associated receptor 1 (Rattus norvegicus) for CNCCc1ccc(OCc2ccc(C(F)(F)F)cc2)cc1 .
a: 61
